assay: Pharmacokinetics in control rats after gavage of JYPs; format: in vivo, Sprague Dawley (SD) rats; conditions: male, Sprague-Dawley, rat, plasma, 1.08 g/kg/day, oral JYPs low dose 1.080 g/kg/d (1st of 3 values), read-out: MRT(0-∞)

{"molecule": "CCC/C=C1\\OC(=O)C2=C1CCC=C2 [Z-Ligustilide]", "MRT inf": "20.4 h"}
{"molecule": "C[C@H]1O[C@@H](O[C@H]2CC[C@@]3(C)[C@@H](CC[C@]4(C)[C@@H]3C=C[C@]35OC[C@@]6(CCC(C)(C)C[C@H]63)[C@H](O)C[C@]54C)[C@]2(C)CO)[C@H](O)[C@@H](O[C@@H]2O[C@H](CO)[C@@H](O)[C@H](O)[C@H]2O)[C@H]1O [Saikosaponin D]", "MRT inf": "13.4 h"}
{"molecule": "C[C@H]1O[C@@H](O[C@H]2CC[C@@]3(C)[C@@H](CC[C@]4(C)[C@@H]3C=C[C@]35OC[C@@]6(CCC(C)(C)C[C@H]63)[C@@H](O)C[C@]54C)[C@]2(C)CO)[C@H](O)[C@@H](O[C@@H]2O[C@H](CO)[C@@H](O)[C@H](O)[C@H]2O)[C@H]1O [Saikosaponin A]", "MRT inf": "9.57 h"}
{"molecule": "CCCC=C1OC(=O)C2=C1CCC1C3C=C4C(=O)OC(=CCCC)C4(CC3)C21 (stereo not shown) [Levistilide A]", "MRT inf": "22.9 h"}

The reported numbers originate from paper PMC10976160.
